Consider the following compounds; for each one, report its myelination.
system: E18 rat cortical neuron-glia co-culture; assay: myelination (MBP fiber length per Olig2+ nucleus), % of 1 µM DAPT response (DMSO = 0) (% of DAPT); higher = more myelination, active = 50 or more; details: 1 µM; treatment time: 8 days (DIV5-DIV13)
Structures can show the parent of a compound that is named as a salt.
// print number alone

Give myelination for the following compound: CN/C(=N\CCSCc1nc[nH]c1C)NC#N
-12.1

Give the measured myelination for CC(=O)OCC(=O)[C@@]1(O)CC[C@H]2[C@@H]3C[C@H](C)C4=CC(=O)C=C[C@]4(C)[C@H]3[C@@H](O)C[C@@]21C [Methylprednisolone acetate]
-10.5

Identify the reported myelination for the following entry. CCOC(=O)C1=C(C)NC(C)=C(C(=O)OCC)C1c1ccccc1/C=C/C(=O)OC(C)(C)C
-18.6

Provide one value: measured myelination of COc1ccnc(C[S+]([O-])c2nc3cc(OC(F)F)ccc3[nH]2)c1OC (centres undefined)
-9.58

Give myelination for the following compound: Nc1nc(F)nc2c1ncn2[C@@H]1O[C@H](CO)[C@@H](O)[C@@H]1O
-29.4

Check the records and state myelination for COc1ccc([C@@H]2Sc3ccccc3N(CCN(C)C)C(=O)[C@@H]2OC(C)=O)cc1
-10.1

Check the records and state myelination for COc1ccc2c3c1O[C@H]1C[C@@H](O)C=C[C@@]31CCN(C)C2
-60.3

Look up and state reported myelination for CCOC(=O)C1=C(C)NC(C)=C(C(=O)OC)C1c1cccc([N+](=O)[O-])c1 (centres undefined)
-7.81

Provide myelination value for the following compound: CN1C2CCCC1CC(NC(=O)c1nn(C)c3ccccc13)C2 (centres undefined)
-10.7

Quickly give me recorded myelination for COc1cc(/C=C/c2ccc(O)cc2)cc(OC)c1
-13.8

Specify reported myelination for the compound shown: C[C@]12CCC(=O)C=C1CC[C@@H]1[C@@H]2C(=O)C[C@@]2(C)[C@H]1CC[C@]2(O)C(=O)CO
-12.4

Recall and state the measured myelination for CNC[C@H](O)c1ccc(O)c(O)c1 [Epinephrine] .
2.28

# return recorded myelination for entry O=C1CN2Cc3c(ccc(Cl)c3Cl)N=C2N1 [Anagrelide hydrochloride]
-1.07

Query myelination for Clc1ccccc1CN1CCc2sccc2C1
-18.3

Quick one: give measured myelination for O=S(=O)(O)CCS
1.33

# return recorded myelination for input CC(C(=O)O)c1ccc(CC2CCCC2=O)cc1 (centres undefined)
1.34

Provide only the value of recorded myelination for O=C1CN(/N=C/c2ccc([N+](=O)[O-])o2)C(=O)N1
-1.03

Name the recorded myelination of the item CN(C)CCOc1ccc(/C(=C(/CCCl)c2ccccc2)c2ccccc2)cc1 in your answer.
3.19

Fill in myelination for record CC(N)C12CC3CC(CC(C3)C1)C2 (centres undefined)
28.7

* * *

Please respond with reported myelination for every item in the list.
system: E18 rat cortical neuron-glia co-culture; assay: myelination (MBP fiber length per Olig2+ nucleus), % of 1 µM DAPT response (DMSO = 0) (% of DAPT); higher = more myelination, active = 50 or more; conditions: 1 µM; treatment time: 8 days (DIV5-DIV13)
// response body must contain only the number

Report value only: myelination, E18 rat cortical neuron-glia co-culture, COc1cc(C)c(Cc2cnc(N)nc2N)cc1OC [Ormetoprim]
-31.5

With E18 rat cortical neuron-glia co-culture as the test system, provide measured myelination for this compound: CCCc1c(OCCCCc2nnn[nH]2)ccc(C(C)=O)c1O
-11.5

With E18 rat cortical neuron-glia co-culture as the test system, provide measured myelination for this compound: CCCNCC(O)COc1ccccc1C(=O)CCc1ccccc1 (stereo not drawn) [Propafenone]
-1.52

Please look at Fc1ccc([C@@H]2CCNC[C@H]2COc2ccc3c(c2)OCO3)cc1 [Paroxetine] and tell me its recorded myelination on E18 rat cortical neuron-glia co-culture.
-13.8

# return myelination of CC1=C(CC(=O)O)c2cc(F)ccc2/C1=C\c1ccc([S+](C)[O-])cc1 (stereo not drawn) [Sulindac] (system: E18 rat cortical neuron-glia co-culture)
-5.43

Jot down myelination (E18 rat cortical neuron-glia co-culture) of Cc1cccc(CN2CCN(C(c3ccccc3)c3ccc(Cl)cc3)CC2)c1 (stereo not drawn) [Meclizine] .
-29.8

Enter myelination (test system E18 rat cortical neuron-glia co-culture) for CC(=O)CCCCn1c(=O)c2c(ncn2C)n(C)c1=O [Pentoxifylline]
-4.66

Fetch value of myelination on E18 rat cortical neuron-glia co-culture for O=C(O)COCCN1CCN(C(c2ccccc2)c2ccc(Cl)cc2)CC1 (stereo not drawn) [Virlix] .
-2.52

Write myelination of O=C(CCCN1CC=C(n2c(=O)[nH]c3ccccc32)CC1)c1ccc(F)cc1 [Droperidol] ; system used: E18 rat cortical neuron-glia co-culture
-4.1

For E18 rat cortical neuron-glia co-culture, give myelination of the listed compound: CCCOc1ccc(C(=O)OCCN(CC)CC)cc1N [Proxymetacaine]
13.3

Name the value of myelination reported for CC(C)(C)NC(=O)[C@H]1CC[C@H]2[C@@H]3CC[C@H]4NC(=O)C=C[C@]4(C)[C@H]3CC[C@]12C [Finasteride] when tested on E18 rat cortical neuron-glia co-culture.
-19.1

Please respond with reported myelination (system E18 rat cortical neuron-glia co-culture) for Clc1ccccc1C(c1ccccc1)(c1ccccc1)n1ccnc1 [Clotrimazole] .
7.64

Answer briefly: myelination recorded on E18 rat cortical neuron-glia co-culture for CS(N)(=O)=O [Methanesulfonamide]
-10.9

State myelination on E18 rat cortical neuron-glia co-culture. Entry: CO[C@H]1/C=C/O[C@@]2(C)Oc3c(C)c(O)c4c(O)c(c5c(nc6cc(C)ccn65)c4c3C2=O)NC(=O)/C(C)=C\C=C\[C@H](C)[C@H](O)[C@@H](C)[C@@H](O)[C@@H](C)[C@H](OC(C)=O)[C@@H]1C [Rifaximin]
-4.06

Report its myelination with E18 rat cortical neuron-glia co-culture as the test system: C[C@@](Cc1ccc(O)c(O)c1)(NN)C(=O)O [Carbidopa]
-3.67

Output reported myelination of the compound CNNCc1ccc(C(=O)NC(C)C)cc1 [Procarbazine] on E18 rat cortical neuron-glia co-culture.
-6.44

Specify myelination for CCN(CC)CC1CCCCN1CC(=O)N1c2ccccc2C(=O)Nc2cccnc21 (stereo not drawn) [Otenzepad] , system E18 rat cortical neuron-glia co-culture.
-9.61

Under E18 rat cortical neuron-glia co-culture, report myelination for Cc1noc(NS(=O)(=O)c2ccc(N)cc2)c1C [Sulfisoxazole]
-3.97

* * *

So I've got a bunch of compounds here, and I need their myelination values.
test system: E18 rat cortical neuron-glia co-culture; assay: myelination (MBP fiber length per Olig2+ nucleus), % of 1 µM DAPT response (DMSO = 0) (% of DAPT); higher = more myelination, active = 50 or more; conditions: 5 µM; treatment time: 8 days (DIV5-DIV13)

Tell me its myelination given Oc1ncnc2[nH]ncc12 [Allopurinol] as the entry.
-0.27 (inactive)

Return myelination (reported value) for this compound: CCn1cc(C(=O)O)c(=O)c2cc(F)c(N3CCNCC3)cc21 [Norfloxacin]
-11.1 (inactive)

Indicate the recorded myelination value for this compound: CN(C)CCCN1c2ccccc2CCc2ccc(Cl)cc21 [Clomipramine]
-23 (inactive)

Fill in reported myelination for this entry: C[C@H]1C[C@@H]2[C@H]([C@@H](O)C[C@@]3(C)[C@H]2CC[C@]3(O)C(=O)CO)[C@@]2(C)C=CC(=O)C=C12 [Methylprednisolone]
2.01 (inactive)

Check the records and state myelination for C[C@]12CC[C@@H]3c4ccc(O)cc4CC[C@H]3[C@@H]1CC[C@@H]2O [Estradiol]
-35.3 (inactive)

Supply measured myelination of CN1CCC(=C2c3ccccc3C=Cc3ccccc32)CC1 [Cyproheptadine] in your reply.
-1.4 (inactive)

Output measured myelination for this item: C=C1/C(=C\C=C2/CCC[C@]3(C)[C@@H]([C@H](C)/C=C/[C@@H](O)C4CC4)CC[C@@H]23)C[C@@H](O)C[C@@H]1O [Calcipotriene]
-82.7 (inactive)

For the compound CC(=O)OCC(=O)NCCCOc1cccc(CN2CCCCC2)c1 [Roxatidine acetate] , give its measured myelination value.
-14.2 (inactive)

Recall and state the measured myelination for CC1(C)S[C@@H]2[C@H](NC(=O)[C@H](N)c3ccccc3)C(=O)N2[C@H]1C(=O)O [Ampicillin] .
-18.9 (inactive)

Tell us which myelination value is on record for C[C@@H]1CN(CCCn2c3ccccc3c3ccccc32)C[C@H](C)N1 [Rimcazole]
< -33.5 (inactive)

Provide measured myelination value, entry: CC1=C(/C=C/C(C)=C/C=C/C(C)=C/C(=O)O)C(C)(C)CCC1 [Retinoic Acid]
-10.5 (inactive)

Answer with the recorded myelination of CCc1cc(C(N)=S)ccn1 [Ethionamide] only.
3.35 (inactive)

// fetch myelination given entry Cc1nc2n(c(=O)c1CCN1CCC(c3noc4cc(F)ccc34)CC1)CCCC2 [Risperidone]
-15.1 (inactive)

Hello, please tell me recorded myelination for this one: CCC1=C(C)CN(C(=O)NCCc2ccc(S(=O)(=O)NC(=O)N[C@H]3CC[C@H](C)CC3)cc2)C1=O [Glimepiride]
-10.6 (inactive)

Identify measured myelination corresponding to CC(=O)OCC(=O)[C@@]1(O)CC[C@H]2[C@@H]3C[C@H](C)C4=CC(=O)C=C[C@]4(C)[C@H]3[C@@H](O)C[C@@]21C [Methylprednisolone acetate]
-15.1 (inactive)

Supply myelination value. Item: Cc1cccc(C)c1OCC(C)N (stereo not given) [Mexiletine]
8.07 (inactive)

Consider the compound CN1CCN(CC/C=C2/c3ccccc3Sc3ccc(S(=O)(=O)N(C)C)cc32)CC1 [Thiothixene] . State its measured myelination.
42.5 (inactive)

Fill in myelination for record Nc1nc2c(ncn2COC(CO)CO)c(=O)[nH]1 [Ganciclovir]
7.82 (inactive)

Supply reported myelination belonging to this compound: CC(C)(C(=O)O)c1ccc(C(O)CCCN2CCC(C(O)(c3ccccc3)c3ccccc3)CC2)cc1 (stereo not given) [Fexofenadine]
0.141 (inactive)

Answer with reported myelination of CCn1cc(C(=O)O)c(=O)c2cc(F)c(N3CCN(C)CC3)cc21 [Pefloxacin]
-12.3 (inactive)

Provide myelination value for the following compound: C=C[C@H]1CN2CC[C@H]1C[C@H]2[C@H](O)c1ccnc2ccc(OC)cc12 [Quinine]
-11.3 (inactive)

Report myelination, nothing else, for this compound: N[C@@H](C(=O)N[C@@H]1C(=O)N2C(C(=O)O)=C(CSc3c[nH]nn3)CS[C@H]12)c1ccc(O)cc1 [Cefatrizine]
-4.37 (inactive)

Give a short answer stating reported myelination for NC1CCN(c2cccc(Cl)n2)CC1 .
-35 (inactive)

Could you please provide reported myelination for CC1(C)O[C@@H]2C[C@H]3[C@@H]4CCC5=CC(=O)C=C[C@]5(C)[C@@]4(F)[C@@H](O)C[C@]3(C)[C@]2(C(=O)CO)O1 [Triamcinolone Acetonide] ? Thanks!
19.3 (inactive)

Hello, please tell me recorded myelination for this one: CCCCCCNC(=O)n1cc(F)c(=O)[nH]c1=O [Carmofur]
-14.4 (inactive)

Check the records and state myelination for Nc1nc(N)nc(-c2cc(Cl)ccc2Cl)n1 [Irsogladine]
-20.9 (inactive)

Could you please provide reported myelination for CC(=O)O[C@]1(C(C)=O)CC[C@H]2[C@@H]3C=C(C)C4=CC(=O)CC[C@]4(C)[C@H]3CC[C@@]21C [Megestrol acetate] ? Thanks!
-31.3 (inactive)

Identify measured myelination associated with CCc1oc2ccccc2c1C(=O)c1cc(Br)c(O)c(Br)c1 [Benzbromarone]
-9.52 (inactive)

Provide only the value of recorded myelination for Cc1ccccc1C(OCCN(C)C)c1ccccc1 (stereo not given) [Orphenadrine]
-2.71 (inactive)

Return myelination (reported value) for this compound: Cn1ccnc1S [Methimazole]
-15.9 (inactive)

Quote myelination reported for O=C(O)CCCc1ccccc1 [4-Phenylbutyric acid] please.
-8.79 (inactive)

Output measured myelination for this item: O=C(CCNNC(=O)c1ccncc1)NCc1ccccc1 [Nialamide]
-19 (inactive)

Indicate the recorded myelination value for this compound: CCC(=O)NS(=O)(=O)c1ccc(-c2c(-c3ccccc3)noc2C)cc1 [Parecoxib]
1.22 (inactive)

Provide myelination value for the following compound: CCOC(=O)[C@H](CCc1ccccc1)N[C@@H](C)C(=O)N1Cc2ccccc2C[C@H]1C(=O)O [Quinapril]
-6.78 (inactive)

Fill in reported myelination for this entry: Cc1cc2c(s1)Nc1ccccc1N=C2N1CCN(C)CC1 [Olanzapine]
-13.5 (inactive)
